assay method text: BSK_LPS_SRB: Viability Assessment in the BioMAP Diversity Plus: LPS Assay (AID 2283079);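 further: total protein by sulforhodamine B absorbance as a cytotoxicity measure; measured one day after compound addition; fitted in both directions against DMSO so loss or gain of signal counts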
experimental conditions: primary human HUVEC with PBMC
The source made the active and inactive calls. How the source made its calls: active means hit-call score of the fitted dose curve at least 0.9, where 1 is the maximum; inactive means score below 0.9.

# compound, AC50
measured = [
    ("CC(C)Nc1nc(Cl)nc(NC(C)C)n1", "inactive"),
    ("CC1(C)C(C=C(Cl)Cl)C1C(=O)OC(C#N)c1cccc(Oc2ccccc2)c1 (centres undefined)", "3.97 µM (active)"),
    ("Nc1cnn(-c2ccccc2)c(=O)c1Cl", "inactive"),
    ("CC(C)=CC1C(C(=O)OCc2coc(Cc3ccccc3)c2)C1(C)C (centres undefined)", "inactive"),
    ("CCOP(=S)(OCC)Oc1nc(Cl)n(C(C)C)n1", "inactive"),
    ("CCOC(=O)C(C)OC(=O)c1cc(Oc2ccc(C(F)(F)F)cc2Cl)ccc1[N+](=O)[O-] (centres undefined)", "6.48 µM (active)"),
    ("CO/N=C(/C1=NOCCO1)c1ccccc1Oc1ncnc(Oc2ccccc2Cl)c1F", "11.4 µM (active)"),
    ("CN=C=S", "inactive"),
    ("Clc1cccc(C(Cl)(Cl)Cl)n1", "inactive"),
    ("COc1cc(Cl)c(OC)cc1Cl", "inactive"),
    ("CC(C)C1(C)N=C(c2ncccc2C(=O)O)NC1=O (centres undefined)", "inactive"),
    ("COP(=S)(OC)Oc1ccc([N+](=O)[O-])c(C)c1", "10.6 µM (active)"),
    ("Cn1c(-c2ccccc2)cc(-c2ccccc2)[n+]1C", "inactive"),
    ("CS(=O)(=O)c1ccc(C(=O)C2C(=O)CCCC2=O)c([N+](=O)[O-])c1", "inactive"),
    ("O=C1C2CC=CCC2C(=O)N1SC(Cl)(Cl)Cl (centres undefined)", "inactive"),
    ("Cc1c(COC(=O)[C@@H]2[C@H](/C=C(\\Cl)C(F)(F)F)C2(C)C)cccc1-c1ccccc1", "inactive"),
    ("COP(=S)(OC)SCn1nnc2ccccc2c1=O", "inactive"),
    ("CCOc1cc(C(C)(C)C)ccc1C1COC(c2c(F)cccc2F)=N1 (centres undefined)", "26.2 µM (active)"),
    ("CCOP(=O)(OCC)Oc1nc(Cl)c(Cl)cc1Cl", "10.7 µM (active)"),
]

###

system tested: chimpanzee Androgen Receptor (AR), AR (gene 747460) (UniProt O97775)
Sequence (O97775 whole entry, looked up): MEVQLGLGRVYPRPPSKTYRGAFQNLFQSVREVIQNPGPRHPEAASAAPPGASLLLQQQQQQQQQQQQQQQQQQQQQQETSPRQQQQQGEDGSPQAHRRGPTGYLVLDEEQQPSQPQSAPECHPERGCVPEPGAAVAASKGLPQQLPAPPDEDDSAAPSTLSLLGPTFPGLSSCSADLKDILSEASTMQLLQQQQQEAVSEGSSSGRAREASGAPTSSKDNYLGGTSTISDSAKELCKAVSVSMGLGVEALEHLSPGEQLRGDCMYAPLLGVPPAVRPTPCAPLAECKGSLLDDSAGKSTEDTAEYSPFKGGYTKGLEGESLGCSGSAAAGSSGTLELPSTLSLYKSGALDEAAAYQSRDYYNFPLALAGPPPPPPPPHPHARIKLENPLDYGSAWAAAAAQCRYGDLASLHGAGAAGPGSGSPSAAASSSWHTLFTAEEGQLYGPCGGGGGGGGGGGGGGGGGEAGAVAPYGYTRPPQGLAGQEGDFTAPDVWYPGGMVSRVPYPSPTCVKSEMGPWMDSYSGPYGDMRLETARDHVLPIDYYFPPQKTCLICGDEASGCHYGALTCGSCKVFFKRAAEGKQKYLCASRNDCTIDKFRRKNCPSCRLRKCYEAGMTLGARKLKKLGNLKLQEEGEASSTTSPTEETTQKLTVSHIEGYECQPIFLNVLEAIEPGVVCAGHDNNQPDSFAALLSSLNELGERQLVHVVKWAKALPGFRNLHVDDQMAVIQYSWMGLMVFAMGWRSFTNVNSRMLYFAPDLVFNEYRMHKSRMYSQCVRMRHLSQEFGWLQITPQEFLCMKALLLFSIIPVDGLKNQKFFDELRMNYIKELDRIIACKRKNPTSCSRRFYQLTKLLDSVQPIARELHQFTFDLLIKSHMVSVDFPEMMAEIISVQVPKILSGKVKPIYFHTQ
assay method text: NVS_NR_cAR: NovaScreen (NVS) Nuclear Receptor Binding Assay for chimpanzee Androgen Receptor (AR) (AID 2283346);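 further: radioligand displacement from AR measured by scintillation counting in a cell-free assay; a loss of bound radioligand signal versus DMSO counts as binding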
Results filed as inconclusive are left out. The source made the active and inactive calls. The calls were made as follows: active = hit-call score of the fitted dose curve at least 0.9, where 1 is the maximum; inconclusive = response in the unintended direction; inactive = score below 0.9.
Possible outcomes: yes (1) for active, no (0) for inactive

# compound, classification
rows = [
    ("COP(=S)(OC)SCn1nnc2ccccc2c1=O", "yes (1)"),
    ("CCCCC(O)(Cn1cncn1)c1ccc(Cl)cc1Cl (configuration not stated)", "yes (1)"),
    ("CS(=O)(=O)c1ccc(C(=O)C2C(=O)CCCC2=O)c([N+](=O)[O-])c1", "yes (1)"),
    ("COC(=O)N(C(=O)N1CO[C@@]2(C(=O)OC)Cc3cc(Cl)ccc3C2=N1)c1ccc(OC(F)(F)F)cc1", "no (0)"),
    ("CC(C)(C)C(=O)C(Oc1ccc(Cl)cc1)n1cncn1 (configuration not stated)", "yes (1)"),
    ("CCN(CC)C(=O)C(C)Oc1cccc2ccccc12 (configuration not stated)", "yes (1)"),
    ("CCCCOCN(C(=O)CCl)c1c(CC)cccc1CC", "no (0)"),
]
